Task for the reader: assign each of the following variants its reported protein stability index.
B1: HESX1 (parent)
chain: HVPNPPSGISFPSVVDHPMPEERA

Variants of: B1
TEST_SUMMARY: protein stability index of a GFP-peptide fusion (GPS, HEK-293T) (PSI 1-6); higher = more stable;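 further: lentivirally expressed fusions sorted by FACS into six bins by GFP to DsRed ratio, PSI derived from sequencing read proportions per bin multiplied by bin number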
APPLIED_CONDITIONS: c terminus: a fixed tail appended

// for each variant in input: emit protein stability index
1. S7K
2. V15A
3. P20G
4. P5S
5. H17N
6. R23D
7. F11N
8. H1F

Found:
1. 2.93
2. 2.65
3. 2.61
4. 3.76
5. 2.8
6. 3
7. 4.54
8. 3.54

// for each variant in input: emit protein stability index
1. V15H
2. H17C
3. V15R
4. E21H
5. S7T
6. V15I

Found:
3.23
2.39
3.11
2.45
2.75
3.16

// for each variant in input: emit protein stability index
1. F11M
2. H1R
3. S7H
4. A24I
5. A24N

Found:
4.88
4.62
2.54
2.36
2.74
